Catalogue of secondary aggressive Method C crw LC50 readings, one per entry.
system: southern corn rootworm, Diabrotica undecimpunctata howardi; details: at-planting soil application, rated 17 days post-infestation

- molecule: "CCCOP(=S)(NNP(=S)(OCC)OCC(C)C)OCCC (centres unmarked) [Compound 18]"
  subject-of-test: "southern corn rootworm, Diabrotica undecimpunctata howardi"
  unit-abbreviation: "kg/ha"
  secondary aggressive Method C crw LC50: 0.36
- molecule: "CCOP(=S)(NNP(=S)(OCC)OCC(C)(C)C)OCC (centres unmarked) [Compound 38]"
  subject-of-test: "southern corn rootworm, Diabrotica undecimpunctata howardi"
  unit-abbreviation: "kg/ha"
  secondary aggressive Method C crw LC50: 0.5
- molecule: "CCOP(=S)(NNP(=S)(OCC)OC(C)CC)OCC (centres unmarked) [Compound 8]"
  subject-of-test: "southern corn rootworm, Diabrotica undecimpunctata howardi"
  unit-abbreviation: "kg/ha"
  secondary aggressive Method C crw LC50: 0.81
- molecule: "CCCOP(=S)(NNP(=S)(OCC)OC(C)C)OCCC (centres unmarked) [Compound 82]"
  subject-of-test: "southern corn rootworm, Diabrotica undecimpunctata howardi"
  unit-abbreviation: "kg/ha"
  secondary aggressive Method C crw LC50: 0.95

----------
tested on: southern corn rootworm, Diabrotica undecimpunctata howardi; conditions: at-planting soil application, rated 17 days post-infestation
readout-type: secondary aggressive Method C crw LC50

- molecule: "CCOP(=S)(NNP(=S)(OCC)OC(C)C)OCC(C)(C)C (stereo not shown) [Compound 46]"
  assay-result: "0.34 kg/ha"
- molecule: "CCCCNP(=S)(NNP(=S)(OCC)OCC)OCC (stereo not shown) [Compound 74]"
  assay-result: "1.03 kg/ha"
- molecule: "CCOP(=S)(NNP(=S)(OCC)OC(C)(C(F)(F)F)C(F)(F)F)OCC(C)(C)C (stereo not shown) [Compound 48]"
  assay-result: "0.63 kg/ha"
- molecule: "CCOP(=S)(NNP(=S)(OCC)SC(C)C)OCC (stereo not shown) [Compound 20]"
  assay-result: "1.01 kg/ha"
- molecule: "CCCCOP(=S)(NNP(=S)(OCCC)OCCC)OCC (stereo not shown) [Compound 17]"
  assay-result: "1.02 kg/ha"
- molecule: "CCOP(=S)(NNP(=S)(OCC)OC(C)CC)OC(C)CC (stereo not shown) [Compound 65, reference compound]"
  assay-result: "0.44 kg/ha"
- molecule: "CCCOP(=S)(NNP(=S)(OCC)OCC(C)(C)C)OCCC (stereo not shown) [Compound 41]"
  assay-result: "0.3 kg/ha"
- molecule: "CCCOP(=S)(NNP(=S)(OCC)OC(C)CC)OCCC (stereo not shown) [Compound 19]"
  assay-result: "0.28 kg/ha"
- molecule: "CCCOP(=S)(NNP(=S)(OCC)OCC)OCC(C)(C)C (stereo not shown) [Compound 34]"
  assay-result: "0.65 kg/ha"
- molecule: "CCCOP(=S)(NNP(=S)(OCCC)OCCC)OCC (stereo not shown) [Compound 28]"
  assay-result: "1.06 kg/ha"

----------
system: southern corn rootworm, Diabrotica undecimpunctata howardi; details: at-planting soil application, value in brackets

- compound: "CCOP(=S)(NNP(=S)(OCC)OC(C)CC)OCC(C)(C)C (stereo not drawn)"
  subject-of-test: "southern corn rootworm, Diabrotica undecimpunctata howardi"
  secondary aggressive Method C crw LC50 / lb/acre: 0.34
- compound: "CCCOP(=S)(NNP(=S)(OCC)OCC(C)(C)C)OCCC (stereo not drawn)"
  subject-of-test: "southern corn rootworm, Diabrotica undecimpunctata howardi"
  secondary aggressive Method C crw LC50 / lb/acre: 0.27
- compound: "CCOP(=S)(NNP(=S)(OCC)OC(C)CC)OC(C)CC (stereo not drawn) [Compound 65, reference compound]"
  subject-of-test: "southern corn rootworm, Diabrotica undecimpunctata howardi"
  secondary aggressive Method C crw LC50 / lb/acre: 0.39
- compound: "CCOP(=S)(NNP(=S)(OCC)OC(C)C)OCC(C)(C)C (stereo not drawn)"
  subject-of-test: "southern corn rootworm, Diabrotica undecimpunctata howardi"
  secondary aggressive Method C crw LC50 / lb/acre: 0.30
- compound: "CCCOP(=S)(NNP(=S)(OCCC)OCCC)OCC (stereo not drawn)"
  subject-of-test: "southern corn rootworm, Diabrotica undecimpunctata howardi"
  secondary aggressive Method C crw LC50 / lb/acre: 0.95
- compound: "CCOP(=S)(NNP(=S)(OCC)SC(C)C)OCC (stereo not drawn)"
  subject-of-test: "southern corn rootworm, Diabrotica undecimpunctata howardi"
  secondary aggressive Method C crw LC50 / lb/acre: 0.90
- compound: "CCCOP(=S)(NNP(=S)(OCC)OCC(C)C)OCCC (stereo not drawn)"
  subject-of-test: "southern corn rootworm, Diabrotica undecimpunctata howardi"
  secondary aggressive Method C crw LC50 / lb/acre: 0.32
- compound: "CCOP(=S)(NNP(=S)(OC(C)C)OC(C)C)OCC [Compound 9, reference compound]"
  subject-of-test: "southern corn rootworm, Diabrotica undecimpunctata howardi"
  secondary aggressive Method C crw LC50 / lb/acre: 0.98
